Attribute: MIC Staphylococcus aureus (GC 4541)
- Tested on: Staphylococcus sp.
- ASSAY COMMENT: In vitro antibacterial evaluation: minimum inhibitory concentration (MIC), broth dilution method
- Format: cell-based
- CONDITIONS: strain GC 4541
- Text: […]
Quick note: give the figure in µg/mL, leave out the unit.

Exam item: // fetch MIC Staphylococcus aureus (GC 4541); item: CC(c1ccccc1)C1NC(=O)CNC(=O)C(CO)NC(=O)C(C(O)C2CN(c3ncccn3)C(=N)N2C2OC(CO)C(O)C(O)C2O)NC(=O)C(C(O)C2CNC(=Nc3ncccn3)N2)NC(=O)C(Cc2ccc(OC3OC(CO)C(OC4OC5COC6(OC5C(O)C4O)C4CC5CC(C4)CC6C5)C(O)C3O)cc2)NC1=O (centres unmarked) ; system: Staphylococcus sp.
Marked response: 32

***
Exam item: // fetch MIC Staphylococcus aureus (GC 4541); item: CC(C)=CCCC(C)CC1OCC2OC(OC3C(CO)OC(Oc4ccc(CC5NC(=O)C(C(C)c6ccccc6)NC(=O)CNC(=O)C(CO)NC(=O)C(C(O)C6CNC(=N)N6C6OC(CO)C(O)C(O)C6O)NC(=O)C(C(O)C6CNC(=N)N6)NC5=O)cc4)C(O)C3O)C(O)C(O)C2O1 (centres unmarked) ; system: Staphylococcus sp.
Marked response: 8

* * *

- Test system: Escherichia coli
- ASSAY COMMENT: In vitro antibacterial evaluation: minimum inhibitory concentration (MIC), broth dilution method
- Assay type: cell-based
- CONDITIONS: Escherichia coli (ATCC 25922); 18 hours at 35° C.
Numbered stars: 1 amine (or outer) side, 2 acyl side, 3 side chain; on linkers, the order of the positions; unused ones are H or OH. Square brackets hold non-standard residues; d marks the D form. Peptide text beside a SMILES is read from it. ξ: configuration not given here. X3 = CC1(C)OCC2OC(N3C(=N)NCC3C(O)C(N[*:1])C(=O)[*:2])C3OC(C)(C)OC3C2O1; ξEnduracididine(βξ-OH,4'ξ) = N=C1NCC(C(O)C(N)C(=O)O)N1; ξPhe(βξ-Me) = CC(c1ccccc1)C(N)C(=O)O
Attribute: MIC Escherichia coli (ATCC 25922)

Solved cases (3 shown):
Exam item: Tell me measured MIC Escherichia coli (ATCC 25922) for CCCCCNC(=O)OC1C(CO)OC(OC2C(CO)OC(Oc3ccc(CC4NC(=O)C(C(C)c5ccccc5)NC(=O)CNC(=O)C(CO)NC(=O)C(C(O)C5CNC(=N)N5C5OC(CO)C(O)C(O)C5O)NC(=O)C(C(O)C5CNC(=N)N5)NC4=O)cc3)C(O)C2O)C(O)C1O (stereo not shown) please.
Marked response: >64 µg/mL

Exam item: Tell me measured MIC Escherichia coli (ATCC 25922) for COc1ccc(COC2C(CO)OC(OC3C(CO)OC(Oc4ccc(CC5NC(=O)C(C(C)c6ccccc6)NC(=O)CNC(=O)C(CO)NC(=O)C(C(O)C6CNC(=N)N6C6OC(CO)C(O)C(O)C6O)NC(=O)C(C(O)C6CNC(=N)N6)NC5=O)cc4)C(O)C3O)C(O)C2O)cc1OCc1ccccc1 (stereo not shown) [Example 239a] please.
Marked response: >64 µg/mL

Exam item: Tell me measured MIC Escherichia coli (ATCC 25922) for CC(c1ccccc1)C1NC(=O)CNC(=O)C(CO)NC(=O)C(C(O)C2CNC(=N)N2C2OC3COC(C)(C)OC3C3OC(C)(C)OC32)NC(=O)C(C(O)C2CNC(=N)N2)NC(=O)C(Cc2ccc(O)cc2)NC1=O (stereo not drawn) [Example 247] (cyclo(G[ξPhe(βξ-Me)]Y[ξEnduracididine(βξ-OH,4'ξ)][X3]S); configuration not given here) please.
Marked response: >64 µg/mL

// next item, MIC Escherichia coli (ATCC 25922) requested
Exam item: Tell me measured MIC Escherichia coli (ATCC 25922) for CC(c1ccccc1)C1NC(=O)CNC(=O)C(CO)NC(=O)C(C(O)C2CNC(=N)N2C2OC(CO)C(O)C(O)C2O)NC(=O)C(C(O)C2CNC(=N)N2)NC(=O)C(Cc2ccc(OC3OC(CO)C(OC4OC5COC6(CCSCC6)OC5C(O)C4O)C(O)C3O)cc2)NC1=O (stereo not shown) please.
Marked response: 64 µg/mL
